# System: HCC1937 cell line
# experimentSummary: Cell growth inhibition (CellTiter-Blue / resazurin)
# Format: cell-based
# testParameters: Homo sapiens
endpointName: pEC50
Please treat pEC50 as minus the base-10 logarithm of the molar concentration.

Ask: Item CCc1cc2c(cc1Cl)nc1c(=O)[nH]c(=O)nc-1n2CCOCC(C)C [JG-2016] has what recorded pEC50?
Result: 4.53

* * *

# systemTested: UniProtKB Q09472
# Sequence (Q09472 whole entry): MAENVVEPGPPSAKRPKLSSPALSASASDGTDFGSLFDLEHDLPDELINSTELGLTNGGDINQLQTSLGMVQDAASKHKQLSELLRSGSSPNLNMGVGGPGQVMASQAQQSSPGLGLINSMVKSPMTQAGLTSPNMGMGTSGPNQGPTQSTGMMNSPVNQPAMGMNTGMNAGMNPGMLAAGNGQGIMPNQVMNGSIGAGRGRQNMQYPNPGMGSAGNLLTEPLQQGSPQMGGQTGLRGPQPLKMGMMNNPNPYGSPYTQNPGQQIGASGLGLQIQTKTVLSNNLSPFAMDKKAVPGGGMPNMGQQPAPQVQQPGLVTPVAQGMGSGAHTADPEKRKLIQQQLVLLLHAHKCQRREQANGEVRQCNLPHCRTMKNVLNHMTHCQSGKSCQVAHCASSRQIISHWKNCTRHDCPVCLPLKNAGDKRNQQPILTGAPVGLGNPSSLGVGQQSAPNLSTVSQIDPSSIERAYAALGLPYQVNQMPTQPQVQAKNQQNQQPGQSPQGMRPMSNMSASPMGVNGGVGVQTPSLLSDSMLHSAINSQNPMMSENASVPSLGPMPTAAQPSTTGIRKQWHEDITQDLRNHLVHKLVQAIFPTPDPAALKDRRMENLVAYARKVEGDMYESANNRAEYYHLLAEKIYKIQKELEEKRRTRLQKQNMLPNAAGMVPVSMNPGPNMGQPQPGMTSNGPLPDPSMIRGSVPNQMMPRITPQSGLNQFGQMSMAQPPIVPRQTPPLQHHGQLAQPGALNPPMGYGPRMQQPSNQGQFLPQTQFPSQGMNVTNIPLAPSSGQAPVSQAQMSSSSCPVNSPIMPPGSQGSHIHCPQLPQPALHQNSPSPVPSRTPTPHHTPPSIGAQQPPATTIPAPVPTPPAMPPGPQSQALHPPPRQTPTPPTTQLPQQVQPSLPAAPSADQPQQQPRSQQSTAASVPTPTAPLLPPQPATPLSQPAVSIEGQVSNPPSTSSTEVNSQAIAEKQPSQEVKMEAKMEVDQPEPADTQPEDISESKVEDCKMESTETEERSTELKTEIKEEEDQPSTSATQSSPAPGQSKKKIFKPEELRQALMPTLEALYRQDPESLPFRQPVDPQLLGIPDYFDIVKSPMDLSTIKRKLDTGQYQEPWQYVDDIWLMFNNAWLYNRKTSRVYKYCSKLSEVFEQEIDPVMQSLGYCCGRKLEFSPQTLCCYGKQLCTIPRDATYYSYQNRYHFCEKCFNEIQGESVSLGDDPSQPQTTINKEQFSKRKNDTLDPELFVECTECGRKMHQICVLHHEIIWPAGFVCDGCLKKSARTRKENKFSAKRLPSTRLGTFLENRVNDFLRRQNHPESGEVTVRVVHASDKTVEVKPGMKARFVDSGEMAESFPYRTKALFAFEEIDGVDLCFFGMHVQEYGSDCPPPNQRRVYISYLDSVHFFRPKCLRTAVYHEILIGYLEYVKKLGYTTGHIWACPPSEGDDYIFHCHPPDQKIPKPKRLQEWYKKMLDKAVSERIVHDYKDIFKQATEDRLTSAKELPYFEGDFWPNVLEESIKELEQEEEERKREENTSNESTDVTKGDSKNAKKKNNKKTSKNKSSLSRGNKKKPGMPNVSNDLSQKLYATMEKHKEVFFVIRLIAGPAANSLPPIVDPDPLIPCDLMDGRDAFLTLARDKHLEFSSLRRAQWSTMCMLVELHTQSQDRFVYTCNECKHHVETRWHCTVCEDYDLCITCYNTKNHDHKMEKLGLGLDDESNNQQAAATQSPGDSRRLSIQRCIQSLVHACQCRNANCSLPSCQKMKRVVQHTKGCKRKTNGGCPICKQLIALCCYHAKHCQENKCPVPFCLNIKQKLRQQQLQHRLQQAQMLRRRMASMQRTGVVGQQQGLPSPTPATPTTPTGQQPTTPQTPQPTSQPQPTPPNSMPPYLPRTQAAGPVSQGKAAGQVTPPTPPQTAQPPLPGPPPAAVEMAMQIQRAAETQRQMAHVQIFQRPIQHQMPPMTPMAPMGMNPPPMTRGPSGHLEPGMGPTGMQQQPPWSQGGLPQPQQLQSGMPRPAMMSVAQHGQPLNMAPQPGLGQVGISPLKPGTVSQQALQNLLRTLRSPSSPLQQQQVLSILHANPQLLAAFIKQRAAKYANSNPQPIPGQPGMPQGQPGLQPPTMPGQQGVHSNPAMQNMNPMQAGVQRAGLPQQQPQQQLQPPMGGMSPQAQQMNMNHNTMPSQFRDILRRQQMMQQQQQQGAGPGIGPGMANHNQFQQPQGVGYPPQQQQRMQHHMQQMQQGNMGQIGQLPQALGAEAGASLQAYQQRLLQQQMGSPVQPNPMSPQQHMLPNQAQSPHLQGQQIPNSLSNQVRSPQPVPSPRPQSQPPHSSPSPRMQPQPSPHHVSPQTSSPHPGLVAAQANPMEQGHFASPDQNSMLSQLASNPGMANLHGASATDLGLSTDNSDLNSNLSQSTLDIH
endpointName: pIC50
The read-out pIC50 is expressed as -log10 of concentration in moles per litre.

Ask: Recorded pIC50 for CCc1cc2c(cc1Cl)nc1c(=O)[nH]c(=O)nc-1n2CCOCC(C)C [JG-2016] with UniProtKB Q09472, please?
Result: 4.13
